# system-under-test: HRgpA-6H (Porphyromonas gingivalis) (UniProt P28784)
# measurement-description: ELISA, coated HRgpA-6H
quantity-name: OD450 nm

Consider the reported OD450 nm for these binders:
>>> data_value("KB001 mouse Fab VH L63M (Fab, V domains shown) VH: EVQLKQSGPGLVAPSQSLSITCTVSGFSLSIYSVHWVRQPPGKGLEWLGMIWGGGSSDYNSAMKSRLSISKDNSKSQVFLKMNSLQTDDTAMYYCARNGNFYAMDYWGQGTSVTVSS VL: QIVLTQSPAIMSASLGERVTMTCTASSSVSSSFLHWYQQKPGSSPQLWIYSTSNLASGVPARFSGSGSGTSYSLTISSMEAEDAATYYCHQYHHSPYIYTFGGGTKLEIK")
0.8
>>> data_value("KB001 mouse Fab VH I31F (Fab, V domains shown) VH: EVQLKQSGPGLVAPSQSLSITCTVSGFSLSFYSVHWVRQPPGKGLEWLGMIWGGGSSDYNSALKSRLSISKDNSKSQVFLKMNSLQTDDTAMYYCARNGNFYAMDYWGQGTSVTVSS VL: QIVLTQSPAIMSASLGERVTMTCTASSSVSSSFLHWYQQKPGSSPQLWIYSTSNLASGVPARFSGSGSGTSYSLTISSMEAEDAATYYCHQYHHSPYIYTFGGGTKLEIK")
0.45
>>> data_value("KB001 mouse Fab VH S30H (Fab, V domains shown) VH: EVQLKQSGPGLVAPSQSLSITCTVSGFSLHIYSVHWVRQPPGKGLEWLGMIWGGGSSDYNSALKSRLSISKDNSKSQVFLKMNSLQTDDTAMYYCARNGNFYAMDYWGQGTSVTVSS VL: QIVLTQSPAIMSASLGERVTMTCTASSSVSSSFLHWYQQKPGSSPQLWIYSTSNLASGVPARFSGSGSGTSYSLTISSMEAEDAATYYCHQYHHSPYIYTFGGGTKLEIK")
0.482
>>> data_value("KB001 mouse Fab VH I31M (Fab, V domains shown) VH: EVQLKQSGPGLVAPSQSLSITCTVSGFSLSMYSVHWVRQPPGKGLEWLGMIWGGGSSDYNSALKSRLSISKDNSKSQVFLKMNSLQTDDTAMYYCARNGNFYAMDYWGQGTSVTVSS VL: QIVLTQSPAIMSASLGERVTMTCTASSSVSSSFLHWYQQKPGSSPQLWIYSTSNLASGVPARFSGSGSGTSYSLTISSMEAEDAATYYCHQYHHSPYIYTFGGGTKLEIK")
0.522

Provide one value: measured OD450 nm of KB001 mouse Fab VL T24Q (Fab, V domains shown) VH: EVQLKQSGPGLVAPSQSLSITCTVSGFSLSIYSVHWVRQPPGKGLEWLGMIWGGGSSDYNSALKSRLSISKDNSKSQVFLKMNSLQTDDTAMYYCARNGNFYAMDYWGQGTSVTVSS VL: QIVLTQSPAIMSASLGERVTMTCQASSSVSSSFLHWYQQKPGSSPQLWIYSTSNLASGVPARFSGSGSGTSYSLTISSMEAEDAATYYCHQYHHSPYIYTFGGGTKLEIK 0.765

Source: patent US20240400654A1
